Source: patent US11707441B2

subject of test: hNav1.4 I1310N (Homo sapiens, UniProt P35499, I1310N)
Sequence (P35499 whole entry I1310N): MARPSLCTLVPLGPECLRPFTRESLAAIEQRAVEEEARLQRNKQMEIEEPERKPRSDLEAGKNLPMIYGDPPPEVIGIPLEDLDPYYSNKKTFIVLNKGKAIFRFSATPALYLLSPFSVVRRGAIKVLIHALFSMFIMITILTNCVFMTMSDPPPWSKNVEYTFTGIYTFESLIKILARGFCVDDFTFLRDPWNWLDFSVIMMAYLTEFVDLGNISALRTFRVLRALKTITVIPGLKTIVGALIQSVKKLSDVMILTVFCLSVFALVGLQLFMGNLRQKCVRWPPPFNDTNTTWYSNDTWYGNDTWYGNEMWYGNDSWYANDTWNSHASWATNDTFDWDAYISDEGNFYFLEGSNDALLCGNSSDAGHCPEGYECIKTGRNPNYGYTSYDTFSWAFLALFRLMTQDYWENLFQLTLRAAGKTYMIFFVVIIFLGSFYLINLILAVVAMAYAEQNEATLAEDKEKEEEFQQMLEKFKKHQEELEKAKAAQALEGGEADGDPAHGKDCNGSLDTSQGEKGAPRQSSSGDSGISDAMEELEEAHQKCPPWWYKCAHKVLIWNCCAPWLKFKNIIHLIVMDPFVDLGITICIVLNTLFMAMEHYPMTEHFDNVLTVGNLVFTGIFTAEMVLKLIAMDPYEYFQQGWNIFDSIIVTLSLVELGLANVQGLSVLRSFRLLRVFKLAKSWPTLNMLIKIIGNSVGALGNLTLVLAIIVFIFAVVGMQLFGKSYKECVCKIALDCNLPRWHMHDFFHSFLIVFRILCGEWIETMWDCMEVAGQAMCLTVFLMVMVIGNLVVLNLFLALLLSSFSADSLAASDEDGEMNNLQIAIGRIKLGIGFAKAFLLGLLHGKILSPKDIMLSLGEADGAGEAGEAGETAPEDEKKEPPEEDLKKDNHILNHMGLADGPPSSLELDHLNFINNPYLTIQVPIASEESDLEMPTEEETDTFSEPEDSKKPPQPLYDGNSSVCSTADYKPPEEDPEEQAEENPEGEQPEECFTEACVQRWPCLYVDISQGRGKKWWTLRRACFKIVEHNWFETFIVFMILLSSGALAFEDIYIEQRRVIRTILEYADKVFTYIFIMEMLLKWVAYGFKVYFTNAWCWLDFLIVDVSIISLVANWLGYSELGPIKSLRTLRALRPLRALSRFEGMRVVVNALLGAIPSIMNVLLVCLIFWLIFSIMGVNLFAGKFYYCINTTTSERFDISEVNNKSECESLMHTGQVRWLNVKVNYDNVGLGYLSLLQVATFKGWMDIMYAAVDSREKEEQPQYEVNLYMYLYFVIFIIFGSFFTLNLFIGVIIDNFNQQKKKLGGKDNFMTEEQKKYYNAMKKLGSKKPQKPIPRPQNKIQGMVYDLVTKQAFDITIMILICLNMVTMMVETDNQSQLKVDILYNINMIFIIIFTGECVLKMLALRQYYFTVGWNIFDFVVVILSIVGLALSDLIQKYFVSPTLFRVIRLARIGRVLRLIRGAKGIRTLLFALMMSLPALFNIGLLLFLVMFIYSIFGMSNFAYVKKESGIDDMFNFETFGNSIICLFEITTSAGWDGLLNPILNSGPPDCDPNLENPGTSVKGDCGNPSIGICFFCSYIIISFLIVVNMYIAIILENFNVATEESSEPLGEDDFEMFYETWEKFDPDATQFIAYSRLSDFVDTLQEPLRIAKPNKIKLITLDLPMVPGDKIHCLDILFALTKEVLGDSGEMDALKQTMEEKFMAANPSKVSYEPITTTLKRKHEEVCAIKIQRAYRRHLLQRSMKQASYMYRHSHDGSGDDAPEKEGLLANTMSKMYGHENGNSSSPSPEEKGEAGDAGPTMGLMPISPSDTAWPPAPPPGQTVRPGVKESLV
method description: Whole-cell patch clamp sodium current inhibition in transfected HEK293T cells, I1310N mutant
Assay type: cell-based
measurement parameters: repetitive depolarizing pulses, 10 Hz, read-out: IC50 ± SE Use and frequency-dependent block at 10 Hz
quantity measured: pIC50
Here pIC50 is given on a logarithmic scale as minus log10 of the concentration in mol/L.

Form field: reported pIC50 of C[C@H](NCc1ccc(OCc2cccc(F)c2)cc1)C(N)=O [safinamide]
4.34

====

subject of test: Wild Type hNav1.4 (Homo sapiens, UniProt P35499)
Construct: expressed in transfected cells; host or cells: HEK293T
Sequence (P35499 whole entry): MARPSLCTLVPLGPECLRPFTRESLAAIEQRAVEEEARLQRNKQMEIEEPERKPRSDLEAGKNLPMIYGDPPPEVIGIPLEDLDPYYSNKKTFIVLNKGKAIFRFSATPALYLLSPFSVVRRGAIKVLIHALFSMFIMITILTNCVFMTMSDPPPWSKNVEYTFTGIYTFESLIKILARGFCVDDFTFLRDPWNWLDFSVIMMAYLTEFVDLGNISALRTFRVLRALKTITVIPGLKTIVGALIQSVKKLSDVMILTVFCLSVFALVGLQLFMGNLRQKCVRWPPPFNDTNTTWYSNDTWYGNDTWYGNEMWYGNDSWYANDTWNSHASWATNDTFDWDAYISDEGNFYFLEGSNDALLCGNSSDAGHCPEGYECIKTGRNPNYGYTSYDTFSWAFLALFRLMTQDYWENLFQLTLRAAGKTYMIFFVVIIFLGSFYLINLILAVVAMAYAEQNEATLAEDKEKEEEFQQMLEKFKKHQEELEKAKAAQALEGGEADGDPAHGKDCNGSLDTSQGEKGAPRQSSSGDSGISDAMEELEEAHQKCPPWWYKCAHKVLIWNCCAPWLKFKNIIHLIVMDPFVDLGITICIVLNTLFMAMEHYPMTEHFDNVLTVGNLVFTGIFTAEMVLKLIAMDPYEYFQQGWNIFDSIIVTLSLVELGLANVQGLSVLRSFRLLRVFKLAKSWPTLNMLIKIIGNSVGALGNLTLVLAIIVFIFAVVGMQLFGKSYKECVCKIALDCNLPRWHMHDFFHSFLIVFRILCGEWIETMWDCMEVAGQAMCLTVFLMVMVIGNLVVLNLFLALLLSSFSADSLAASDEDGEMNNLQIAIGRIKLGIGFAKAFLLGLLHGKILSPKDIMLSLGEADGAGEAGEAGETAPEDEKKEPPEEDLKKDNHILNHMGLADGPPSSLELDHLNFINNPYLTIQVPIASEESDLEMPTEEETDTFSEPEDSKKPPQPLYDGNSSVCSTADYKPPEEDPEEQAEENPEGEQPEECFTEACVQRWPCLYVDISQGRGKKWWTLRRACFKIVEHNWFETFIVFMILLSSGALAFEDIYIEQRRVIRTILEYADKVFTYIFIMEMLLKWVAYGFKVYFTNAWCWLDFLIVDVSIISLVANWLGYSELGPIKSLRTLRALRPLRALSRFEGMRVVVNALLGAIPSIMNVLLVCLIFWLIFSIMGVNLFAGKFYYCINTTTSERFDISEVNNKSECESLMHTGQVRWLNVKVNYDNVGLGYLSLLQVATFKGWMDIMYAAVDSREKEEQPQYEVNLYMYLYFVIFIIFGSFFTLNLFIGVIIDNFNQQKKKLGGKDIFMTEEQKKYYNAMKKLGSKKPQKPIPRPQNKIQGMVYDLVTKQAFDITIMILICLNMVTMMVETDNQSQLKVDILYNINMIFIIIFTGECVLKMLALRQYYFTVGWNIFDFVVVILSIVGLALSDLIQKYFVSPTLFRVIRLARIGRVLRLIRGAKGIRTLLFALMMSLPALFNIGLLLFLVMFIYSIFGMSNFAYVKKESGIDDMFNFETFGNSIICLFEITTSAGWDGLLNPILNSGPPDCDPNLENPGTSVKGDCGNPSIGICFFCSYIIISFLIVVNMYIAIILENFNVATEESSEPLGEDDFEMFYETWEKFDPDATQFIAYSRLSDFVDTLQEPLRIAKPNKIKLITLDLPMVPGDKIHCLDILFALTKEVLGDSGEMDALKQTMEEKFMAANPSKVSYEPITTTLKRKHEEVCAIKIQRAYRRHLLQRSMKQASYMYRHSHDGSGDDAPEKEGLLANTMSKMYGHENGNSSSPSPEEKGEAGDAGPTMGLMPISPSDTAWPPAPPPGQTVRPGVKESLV
method description: Whole-cell patch clamp sodium current inhibition in transfected HEK293T cells, wild type
Type: cell-based
measurement parameters: repetitive depolarizing pulses, 10 Hz, read-out: IC50 ± SE Use and frequency-dependent block at 10 Hz
quantity measured: IC50

Given the molecule C[C@H](NCc1ccc(OCc2cccc(F)c2)cc1)C(N)=O [safinamide] , what is its reported IC50?
33 µM

====

subject of test: hNav1.4 F1298C (Homo sapiens, UniProt P35499, F1298C)
Construct: expressed in transfected cells; host or cells: HEK293T
Sequence (P35499 whole entry F1298C): as the sequence (P35499 whole entry) above, with F1298C counted along it
method description: Whole-cell patch clamp sodium current inhibition in transfected HEK293T cells, F1298C mutant
Assay type: cell-based
measurement parameters: repetitive depolarizing pulses, 10 Hz, read-out: IC50 ± SE Use and frequency-dependent block at 10 Hz
quantity measured: IC50 (µM)
# number only, unit µM dropped from output

Consider the compound shown here: C[C@H](NCc1ccc(OCc2cccc(F)c2)cc1)C(N)=O [safinamide] What is its recorded IC50?
83

====

subject of test: hNav1.4 P1158L (Homo sapiens, UniProt P35499, P1158L)
Construct: expressed in transfected cells; host or cells: HEK293T
method description: Whole-cell patch clamp sodium current inhibition in transfected HEK293T cells, P1158L mutant
Type: cell-based
measurement parameters: repetitive depolarizing pulses, 10 Hz, read-out: IC50 ± SE Use and frequency-dependent block at 10 Hz
quantity measured: pIC50
// returns pIC50 (minus log10 of molar concentration), number only

Which pIC50 value belongs to C[C@H](NCc1ccc(OCc2cccc(F)c2)cc1)C(N)=O [safinamide] ?
4.47

====

subject of test: Wild Type hNav1.4 (Homo sapiens, UniProt P35499)
Construct: expressed in transfected cells; host or cells: HEK293T
method description: Whole-cell patch clamp sodium current inhibition in transfected HEK293T cells, wild type
Type: cell-based
measurement parameters: HP -120 mV, 0.1 Hz, read-out: IC50 ± SE Tonic block at 0.1 Hz
quantity measured: IC50 (µM)
Return type: number; implicit unit µM.

Entry C[C@H](NCc1ccc(OCc2cccc(F)c2)cc1)C(N)=O [safinamide] has what IC50?
160
